Ref: patent US8618098B2

- Study system: Btk enzyme (His-tagged, full-length) (Homo sapiens (Human), UniProt Q06187)
- Sequence (Q06187 whole entry): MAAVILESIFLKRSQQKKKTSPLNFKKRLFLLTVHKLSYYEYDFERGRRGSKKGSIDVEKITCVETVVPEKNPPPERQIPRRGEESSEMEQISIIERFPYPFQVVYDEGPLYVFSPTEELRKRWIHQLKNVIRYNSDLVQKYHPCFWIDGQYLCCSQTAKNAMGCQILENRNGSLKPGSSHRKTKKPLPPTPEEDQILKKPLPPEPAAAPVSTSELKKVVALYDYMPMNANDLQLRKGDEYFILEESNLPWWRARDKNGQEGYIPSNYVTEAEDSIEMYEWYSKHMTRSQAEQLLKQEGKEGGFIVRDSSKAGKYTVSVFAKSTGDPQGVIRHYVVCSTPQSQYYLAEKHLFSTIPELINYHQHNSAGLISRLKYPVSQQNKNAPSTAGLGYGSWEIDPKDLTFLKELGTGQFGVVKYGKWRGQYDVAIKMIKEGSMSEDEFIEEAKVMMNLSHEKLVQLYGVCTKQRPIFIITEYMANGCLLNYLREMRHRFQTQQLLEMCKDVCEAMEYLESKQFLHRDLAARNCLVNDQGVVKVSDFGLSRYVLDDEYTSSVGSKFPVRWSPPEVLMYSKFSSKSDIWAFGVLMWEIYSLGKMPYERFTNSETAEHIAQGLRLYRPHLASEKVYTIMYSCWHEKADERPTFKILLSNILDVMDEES
Observable: pIC50
Units for pIC50: none; it is -log10 of a concentration expressed in mol/L.

- Cc1c(-c2cc(Nc3ccc(C(=O)N4CCOCC4)cn3)c(=O)n(C)c2)cccc1-n1ncc2cc(N(C)C)ccc2c1=O [III-1]: 6.91

Okay, now this compound:
compound Cc1c(-c2cc(Nc3ccc(C(=O)N4CCOCC4)cn3)c(=O)n(C)c2)cccc1N1CNc2cc(C(C)(C)O)ccc2C1=O [II-3] , pIC50 observed: 7.74
